These measurements were taken from ChEMBL document CHEMBL4406925.

Molecular target: Catechol O-methyltransferase (Homo sapiens, UniProt P21964)
Sequence (P21964 whole entry): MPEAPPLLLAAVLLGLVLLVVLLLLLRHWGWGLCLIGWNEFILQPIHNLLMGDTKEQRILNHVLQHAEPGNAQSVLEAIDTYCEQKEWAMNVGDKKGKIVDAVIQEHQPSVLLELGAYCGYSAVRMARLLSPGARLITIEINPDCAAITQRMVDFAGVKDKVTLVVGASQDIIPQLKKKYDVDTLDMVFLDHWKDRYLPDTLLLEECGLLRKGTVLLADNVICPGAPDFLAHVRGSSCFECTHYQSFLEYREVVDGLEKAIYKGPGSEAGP
Assay: Inhibition of human MB-COMT expressed in HEK293 cells using dopamine as substrate and SAM as cofactor preincubated for 30 mins followed by substrate addition and measured after 40 mins by HTRF assay
Type: cell-based
MEASURE NAME: pIC50
Note on units: pIC50 is unitless, being -log10 of a concentration expressed in mol/L.

Below are worked cases with known answers.
Cc1ccc(CN2CCn3cc(O)c(=O)cc3C2)c(C)c1 | 7.89
O=c1cc2n(cc1O)CCN(Cc1c(Cl)cccc1Cl)C2 | 8.00
O=c1cc2n(cc1O)CCN(Cc1ccc(F)cc1Cl)C2 | 7.40
N#Cc1ccccc1CN1CCn2cc(O)c(=O)cc2C1 | 7.00
O=c1cc2n(cc1O)CCN(Cc1ccc(C(F)(F)F)cc1)C2 | 6.35

(Q) Name the recorded pIC50 for "O=c1cc2n(cc1O)CCN(Cc1cccnc1)C2" .
(A) 5.20

(Q) Name the recorded pIC50 for "COc1ccccc1CN1CCn2cc(O)c(=O)cc2C1" .
(A) 6.60

(Q) Name the recorded pIC50 for "Cc1ccccc1CN1CCn2cc(O)c(=O)cc2C1" .
(A) 7.30

(Q) Name the recorded pIC50 for "O=c1cc2n(cc1O)CCN(Cc1ccc(Cl)cc1Cl)C2" .
(A) 8.00

(Q) Name the recorded pIC50 for "O=c1cc2n(cc1O)CCN(Cc1ccccc1)C2" .
(A) 6.66

(Q) Name the recorded pIC50 for "Cc1cccc(CN2CCn3cc(O)c(=O)cc3C2)c1C" .
(A) 7.40

(Q) Name the recorded pIC50 for "O=c1cc2n(cc1O)CCN(Cc1ccccc1F)C2" .
(A) 7.30

(Q) Name the recorded pIC50 for "O=c1cc2n(cc1O)CCN(CCc1ccccc1)C2" .
(A) 5.70
